The measured values listed here are drawn from paper PMC4352439.

test system: HepG2 cells; assay: multiparametric cell-based HCA hepatotoxicity assay; set-up: species or system human; conditions: HepG2, 24-hour incubation; read-out: IC50 of cell number (CN)
property_measured: pIC50
Kindly note that pIC50 refers to -log10 of the concentration in mol/L and answer with the value alone.

get_value(item= N#CC(C#N)=NNc1ccc(OC(F)(F)F)cc1 [FCCP, P-fluoromethoxyphenylhydrazone] , readout=pIC50) returns 5.29

---

test system: HepG2 cells; experiment: multiparametric cell-based HCA hepatotoxicity assay; design: species or system human; settings: HepG2, 24-hour incubation; read-out: IC50 of mitochondrial mass (MS)
property_measured: IC50 (µM)
Note: unit µM is implicit; provide only the numeric part.

Tested system HepG2 cells; IC50 recorded for N#CC(C#N)=NNc1ccc(OC(F)(F)F)cc1 [FCCP, P-fluoromethoxyphenylhydrazone] was 7.02
